Target: TEAD1 protein (YAP Binding Domain) (Homo sapiens, UniProt P28347)
Sequence (P28347 167-426 limits assumed): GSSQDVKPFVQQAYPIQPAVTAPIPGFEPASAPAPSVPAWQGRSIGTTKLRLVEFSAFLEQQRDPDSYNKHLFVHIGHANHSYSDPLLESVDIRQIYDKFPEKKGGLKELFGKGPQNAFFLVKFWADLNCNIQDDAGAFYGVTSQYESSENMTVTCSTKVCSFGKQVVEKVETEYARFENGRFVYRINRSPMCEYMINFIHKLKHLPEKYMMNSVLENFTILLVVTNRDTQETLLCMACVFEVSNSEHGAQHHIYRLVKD
Test: biochemical

| compound | IC50 |
| --- | --- |
| CC(NC(=O)c1ccc2c(OCC3CCC(F)(F)CC3)cccc2c1)c1ccccn1 (centres unmarked) | < 0.15 µM |
| COc1cc(N2CCC(C(F)(F)F)CC2)c2ncc(C(=O)N3CC(O)C3)cc2c1 | > 0.5 µM |
| C[C@H](NC(=O)c1ccc2c(N3CCC(C(F)(F)F)CC3)cccc2c1)c1ccccn1 | < 0.15 µM |
| CCOc1cc2cc(C(=O)N[C@H](C)CO)ccc2c(N2CCC(C(F)(F)F)CC2)n1 | < 0.15 µM |
| COc1cc(-c2ccc(C(C)(C)O)cc2)c2ncc(C(=O)N[C@H](C)CO)cc2c1 | 0.3 to 0.5 µM |
| CC[C@H](CO)NC(=O)c1cnc2c(N3CCC(C(F)(F)F)CC3)cc(OC)cc2c1 | < 0.15 µM |
| COc1cc2cc(C(=O)N[C@@H](C)c3ccccn3)ccc2c(-c2ccc(C(F)(F)F)cc2)n1 | < 0.15 µM |
| CC[C@H](CO)NC(=O)c1ccc2c(-c3ccc(C(F)(F)F)cc3)nc(OC)cc2c1 | < 0.15 µM |

###

Molecular target: TEAD1 protein (YAP Binding Domain) (Homo sapiens)
Test: biochemical
pIC50: −log10 of the molar value.
valueKind: pIC50

| molSmiles | valueKind | result |
| --- | --- | --- |
| C[C@H](NC(=O)c1ccc2c(N3CCC(C(F)(F)F)CC3)nccc2c1)c1ccccn1 | pIC50 | > 6.82 |
| COc1cc(N2CCN(CC(F)(F)F)CC2)c2ncc(C(=O)N[C@H](C)CO)cc2c1 | pIC50 | < 6.30 |
| Cc1cc2cc(C(=O)N[C@H](C)CO)ccc2c(N2CCC(C(F)(F)F)CC2)n1 | pIC50 | 6.52 to 6.82 |
| C[C@H](NC(=O)c1cnc2c(C#CC(C)(C)C)cccc2c1)c1ccccn1 | pIC50 | < 6.30 |
| COC[C@H](C)NC(=O)c1cnc2c(N3CCC(CC(F)(F)F)CC3)cc(OC)cc2c1 | pIC50 | > 6.82 |
| COC[C@H](C)NC(=O)c1cnc2c(N3CCC(C(F)(F)F)CC3)cccc2c1 | pIC50 | 6.52 to 6.82 |
| C[C@H](CO)NC(=O)c1cnc2c(N3CCC4(CC3)CC4)cc(OC(F)(F)F)cc2c1 | pIC50 | < 6.30 |
| COc1cc(N2CCC(C(F)(F)F)CC2)c2ncc(C(=O)N[C@@H](C)c3ccccn3)cc2c1 | pIC50 | 6.52 to 6.82 |

###

Target: TEAD1 protein (YAP Binding Domain) (Homo sapiens, UniProt P28347)
Assay: biochemical
pIC50: −log10 of the molar value.

| molSmiles | pIC50 |
| --- | --- |
| COc1cc(N2CCC(C(F)(F)F)CC2)c2ncc(C(=O)N[C@H](C)C(=O)O)cc2c1 | 6.52 to 6.82 |
| COc1cc2cc(C(=O)N[C@@H](C)c3ccccn3)ccc2c(N2CCC(C(F)(F)F)CC2)n1 | > 6.82 |
| COc1cc2cc(C(=O)N[C@H](C)CO)ccc2c(N2CCC(C(F)(F)F)CC2)n1 | > 6.82 |
| COc1cc(-c2ccc(OC(F)F)cc2)c2ncc(C(=O)N[C@H](C)CO)cc2c1 | > 6.82 |
| C[C@H](CO)NC(=O)c1cnc2c(N3CCC(C(F)(F)F)CC3)cccc2c1 | 6.52 to 6.82 |
| COc1cc(N2CCC(C(F)(F)F)CC2)c2ncc(C(=O)N[C@@H](CO)C3CC3)cc2c1 | 6.52 to 6.82 |
| COc1cc(-c2ccc(OC3CC3)cc2)c2ncc(C(=O)N[C@H](C)CO)cc2c1 | > 6.82 |
| COc1cc(N2CCC(C(F)F)CC2)c2ncc(C(=O)N[C@H](C)CO)cc2c1 | 6.52 to 6.82 |

###

Target: TEAD1 protein (YAP Binding Domain) (Homo sapiens, UniProt P28347)
Assay: biochemical
valueKind: IC50

| molSmiles | valueKind | result |
| --- | --- | --- |
| COc1cc(N2CCC3(CC2)CC3)c2ncc(C(=O)N[C@H](C)CO)cc2c1 | IC50 | 150 to 300 nM |
| COc1cc(N2CCC3(CC2)CC(F)(F)C3)c2ncc(C(=O)N[C@H](C)CO)cc2c1 | IC50 | < 150 nM |
| COc1cc(N2CCC(C(F)(F)F)CC2)c2ncc(C(=O)N[C@@H](CO)C(C)(C)C)cc2c1 | IC50 | 150 to 300 nM |
| C#Cc1cccc2cc(C(=O)N[C@@H](C)c3ccccn3)cnc12 | IC50 | > 500 nM |

###

Biological target: TEAD1 protein (YAP Binding Domain) (Homo sapiens, UniProt P28347)
Assay: biochemical
pIC50: −log10 of the molar value.

| compound | pIC50 |
| --- | --- |
| CC(NC(=O)c1cnc2c(OCC3CCC(F)(F)CC3)cccc2c1)c1ccccn1 (stereo not shown) | 6.30 to 6.52 |
| C[C@H](CO)NC(=O)c1ccc2c(N3CCC(C(F)(F)F)CC3)nccc2c1 | 6.30 to 6.52 |
| COc1cc(N2CCC(C(F)(F)F)CC2)c2ncc(C(=O)N[C@H](C)CO)cc2c1 | 6.52 to 6.82 |
| C[C@H](CO)NC(=O)c1ccc2c(-c3ccc(C(F)(F)F)cc3)[nH]c(=O)cc2c1 | < 6.30 |

###

Target: TEAD1 protein (YAP Binding Domain) (Homo sapiens)
Experiment: TEAD1 lipid pocket compound displacement assay (CDA, TR-FRET)
Conditions: read-out: CDA IC50, displacement of Cy5-probe from His-TEAD1, 60 minutes at room temperature
pIC50: −log10 of the molar value.

| compound | pIC50 |
| --- | --- |
| COc1ccc2c(N3CCC(C(F)(F)F)CC3)nc(C(N)=O)cc2c1 [Compound 66] | > 6.82 |
